Give logP for every item shown.
Answer with a number only.

Please look up its logP: `OCc1nonc1-c1ccccc1` 1.92

Which logP is reported for this compound? `Nc1c(-c2ccccc2)no[n+]1[O-]` 1.42

Item under review: `Cc1c(C=O)no[n+]1[O-]` . Reported logP? 1.02

Could you tell me which logP is on file for `CCCc1nonc1C` ? 1.71

# query: logP of entry `Cc1nonc1[N+](=O)[O-]` 0.97

Look up logP: `c1ccc2nsnc2c1` 1.98

Reported logP for `Clc1nonc1-c1ccccc1` : what is it? 3.2

Form field: reported logP of `Cc1nonc1-c1ccccc1` 2.59

What value of logP has been reported for the following compound? `Cc1nonc1S(=O)(=O)c1ccccc1` 2.36

Name the recorded logP for `CNC(=O)c1nonc1C` . 0.56

Entry `c1ccc(-c2nonc2-c2ccccc2)cc1` has what logP? 3.83

Give its logP value. Item: `Cc1nonc1Sc1ccccc1` 2.92

Given the compound `Nc1nonc1N` , what is its reported logP? -0.49

Name the reported logP value associated with the compound `[O-][n+]1onc(-c2ccccc2)c1-c1ccccc1` 3.64

Could you tell me which logP is on file for `O=Cc1c(-c2ccccc2)no[n+]1[O-]` ? 2.92

// returns reported logP for input `Cc1no[n+]([O-])c1Cc1ccccc1` 2.22
